B1: TPR t1 (parent)
chain: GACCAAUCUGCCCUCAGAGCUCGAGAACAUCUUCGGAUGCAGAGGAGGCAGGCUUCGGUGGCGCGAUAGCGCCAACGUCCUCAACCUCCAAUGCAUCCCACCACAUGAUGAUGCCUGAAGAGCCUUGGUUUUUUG

Variants of: B1
assay.method.text: polymerase ribozyme fitness, log enrichment relative to wild type (log ratio); higher = more active; in vitro selection for triplet polymerase activity
Quick rule: polymerase ribozyme fitness (log ratio) of at least -2 means satisfied, below that means not satisfied.

As a guide, the following entries are already answered.
residue_codes=GACCAAUCUGCCCUCAGAGCUCGAGAACAUCUUCGGAUGCAGAGGAGGCAGGCUUCGGUUGCGCGAUGGCGCCAACGUCCUCAACCUCCAAUGCAUCCCACCACAUGAUGAUGCCUGAAGAGCCUUGGUUUUUUG label_value="not satisfied"
residue_codes=GACCAAUCUGCCCUCAGAGCUCGAGAACAUCUUCGGAUGCAGAGGAUGCAGGCUUCGGUGCCGCGAUAGCGCCAACGUCCUCAACCUCCAAUGCAUCCCACCACAUGAUGCUGCCUGAAGAGCCUUGGUUUUUUG label_value="not satisfied"
residue_codes=GACCCAUCUGCCCUCAGAGCUCGAGAACAUCUUCGGAUGCAGAGGAAGCAGGCUUCGGAGGCGCGAUAGCGCCAACGUCCUCAACCUCCAAUGCAUCCCCCCACACGAUGAUGCCUGAAGAGCCUUGGUUUUUUG label_value="not satisfied"
residue_codes=GGCCAAUUUGCCCUCAGAGCUCGAGAACAUCUUCGGAUGCAGAGGAGGCAGGCUUCGGUGGCGCGAUAGCGCCAACGUCCUCGACCUCCAAUGCAUCCCACCACAUGAUGAUGCCUGAAGAGCCUUGGUUUUUUG label_value=satisfied
residue_codes=GACCAAUCUGCCCUCAGAGCUCGAGAACAUCUUCGGAUGCAGAGGAGGCAGGUUUCGGUGGCGCGAUAGCGCCAACGUCCUCAACCUCCAAUGCAUCCCAGCACAUGAUGAUGCCUGAAGAGCCUUGGUUUUUUG label_value=satisfied
residue_codes=GACCAAUCUUCCCUCAGAGCUCGAGAACAUCUUCGGAUGCAGAGGAGGCAGGCUUCGGUGGCGCGAUAGCGCCAACGUCCUGAACCUCCAAUGCAUCCCACCACAUGAUAAUGCCUGAAGAGCCUUGGUUUUUUG label_value=satisfied
residue_codes=GACCCAUCUGCCCUCAGAGCUCGAGAACAUCUUCGGAUGCAGAGGAGGCAGGCUUCGGUGGCGCGAUAGGGCCAACGUCCUCAACCUCCAAUGCAUCCCACCACAUGAUGAUGCCUGAAGAGCCUUGGUUUUUUG label_value="not satisfied"
residue_codes=GACGAAUCUGCCCUCAGAGCUCGAGAACAUCUUCGGAUGCAGAAGUGGCAGGCUUCGGCGGCGCGAUAGCGCCAACGUCCUCAACCUCCAAUGCAUCCCACCACAUGAUGAUGCCUGAAGAGCCUUGGUUUUUUG label_value="not satisfied"
residue_codes=GACCAAUCUGCCCUCAGAGCUCGAGAACAUCUUCGGAUGCAGAGGAGCCAGGCUUCGGUGGCGCGAUAGCGCCAACGUCCUCGACCUCCAAUGCAUCCCACCACAUGAUGAUGCCUGAAGAUCCUUGGUUUUUUG label_value=satisfied

Now, please, on to the next variant.
Task: polymerase ribozyme fitness (log ratio) >= -2 for GACCAAUCUGCCCUCAGAGCUCGAGAACUUCUUCGGAUGCAGAGGAGGCAGGCUUCGGUGGCGCGAUAGCGCCAACGUCCUCAACCUCCAAUGAAUCCCACCACAUGAUGUUGCCUGAAGAGCCUUGGUUUUUUG ?
Result: satisfied
